- Tested on: HCT-15 colon
- EXPERIMENT_DESCRIPTION: NCI tumour cell line growth inhibition, 48 h
MEASURED_ATTRIBUTE: TGI

Sample records with TGI:
[
  {
    "COMPOUND": "O=C(Cn1c(=O)oc2ccc(C(=O)c3ccccc3Cl)cc21)c1ccc([N+](=O)[O-])cc1",
    "RESULT": "65.4 µM"
  },
  {
    "COMPOUND": "O=c1cc(-c2ccccc2)nc(/C=C(\\O)c2ccncc2)n1-c1ccccc1",
    "RESULT": "> 100 µM"
  }
]

Challenge: Need TGI, item Cc1[nH]c(=O)nc2nc3ccc(Cl)cc3c(NC(C)(CO)CO)c12
Response given: > 100 µM

Challenge: Also, COc1cc(F)cc([C@@H](CO)NC(=O)[C@@H](C)N2Cc3ccc(-c4nc(NC5CCOCC5)ncc4Cl)cc3C2=O)c1 please.
Response given: > 86.7 µM

Challenge: Also, COc1cc2cc3c4c(cc(OC)c(OC)c4c2cc1OC)CCN3C(=O)N(C)C please.
Response given: > 100 µM

Challenge: Also, C[C@H](CN1CC(=O)NC(=O)C1)N1CC(=O)NC(=O)C1 please.
Response given: > 100 µM
